B1: H2-Kb / B15 (parent complex)
chain 1: QQQVRQSPQSLTVWEGETAILNCSYENSAFDYFPWYQQFPGEGPALLISILSVSDKKEDGRFTIFFNKREKKLSLHIADSQPGDSATYFCAASAASNNRLTLGKGTQVVVLP
chain 2: DSGVVQSPRHIIKEKGGRSVLTCIPISGHSNVVWYQQTLGKELKFLIQHYEKVERDKGFLPSRFSVQQFDDYHSEMNMSALELEDSAMYFCASSRRADAEQFFGPGTRLTVL
chain 3: not shown
chain 4: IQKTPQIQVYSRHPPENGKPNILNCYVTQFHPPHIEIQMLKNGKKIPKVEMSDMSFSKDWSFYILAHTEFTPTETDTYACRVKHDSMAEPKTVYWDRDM
chain 5: SIINFEKL

Variants of: B1
assay: % of reporter cells activated (NFAT-GFP), raw; note: test concentration or dose not given here
metric_name: ratio to parent
Answers are plain numbers.

mutation_key	data_value
chain 5 L8E	0.741
chain 5 I2R	0.972
chain 5 F5A	0.953
chain 5 N4P	0.00661
chain 5 E6W	0.0482
chain 5 K7I	0.0863
chain 5 N4V	0.028
chain 5 I3S	0.601
chain 5 I2F	0.882
chain 5 F5Y	0.952

Provide each entry's ratio to parent from the list below.
1. chain 5 F5T
2. chain 5 L8D
3. chain 5 I3D
4. chain 5 S1F
5. chain 5 L8M

[1.03, 0.692, 0.503, 0.144, 0.955]

Quick one: give me ratio to parent for each item below, same order please.
1. chain 5 E6H
2. chain 5 S1T
3. chain 5 L8H
4. chain 5 N4Q
5. chain 5 K7G
6. chain 5 L8I
7. chain 5 F5D

[0.241, 0.487, 0.905, 0.0132, 0.457, 0.934, 0.553]

Consider the variant chain 5 F5S and give its measured ratio to parent.
0.969
